TEST_PROTOCOL: ACEA_ER_AUC_viability: ACEA Biosciences xCELLigence Real-Time Cell Analysis on Estrogen Receptor Agonism for Viability (AID 2283782);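 further: continuous compound exposure with impedance area under curve over 80 h; hit means loss of impedance signal meaning reduced cell growth or viability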
Inconclusive results are not listed. Active and inactive are the calls of the source. How the source made its calls: active means hit-call score of the fitted dose curve at least 0.9, where 1 is the maximum; inconclusive means response in the unintended direction; inactive means score below 0.9.
ASSAY_READOUT: AC50

# annotated cases, reported AC50 shown
COMPOUND | RESULT
Brc1c(Br)c(Br)c(Oc2c(Br)c(Br)c(Br)c(Br)c2Br)c(Br)c1Br | inactive
CCN(CC)C(=O)C(Cl)=C(C)OP(=O)(OC)OC | 25.8 µM (active)
CCOc1cc(C=O)ccc1O | inactive
CCN(CCO)CCO | inactive
CCOCn1c(-c2ccc(Cl)cc2)c(C#N)c(Br)c1C(F)(F)F | 50 µM (active)

Which AC50 is listed for "O=C(O)C1(c2ccc3c(c2)OC[C@H](Cc2ccc(-c4ccccc4)cc2)[C@H]3O)CCCC1" ?
78.3 µM (active)

Which AC50 is listed for "Nc1cccnc1" ?
inactive

Which AC50 is listed for "CC(=Cc1ccccc1)[N+](=O)[O-]" ?
11.5 µM (active)

Which AC50 is listed for "CCCCCCCCCCCCN(C)C" ?
inactive

Which AC50 is listed for "O=c1[nH]c(=O)n(Cl)c(=O)n1Cl" ?
inactive
